Origin of values: the supplement of paper PMC10126150

Reported switch fluorescence ratio values for the following sequences.
Test system: ATP;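 also: ATP exposure 15 min at 22 °C before imaging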
ASSAY: switch fluorescence ratio, 500 uM ATP over buffer (Cy3 cluster intensity, sum of 5 cycles each) (fold (ratio)); higher = stronger signal-on switching upon ATP binding; sequences stand for … in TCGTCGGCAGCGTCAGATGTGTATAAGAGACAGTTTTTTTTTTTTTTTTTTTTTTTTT…TC
TEST SETTINGS: aptamer strand: ATP DNA aptamer (quencher-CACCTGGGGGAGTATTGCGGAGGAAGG + anchor), 100 nM annealed; ATP concentration: 500 uM
Hey, just send me the number, nothing else.

Worked cases, answers included:
{"SEQ": "GTTTGATATA", "ENDPOINT": "switch fluorescence ratio", "MEASURED NUMBER": 1.01}
{"SEQ": "CCTTTCACTC", "ENDPOINT": "switch fluorescence ratio", "MEASURED NUMBER": 1.12}
{"SEQ": "ACCCGGGGCA", "ENDPOINT": "switch fluorescence ratio", "MEASURED NUMBER": 1.05}
{"SEQ": "TGGGTATGTT", "ENDPOINT": "switch fluorescence ratio", "MEASURED NUMBER": 1.02}
{"SEQ": "ATCCGTGATG", "ENDPOINT": "switch fluorescence ratio", "MEASURED NUMBER": 1.11}
{"SEQ": "CATATGGGGA", "ENDPOINT": "switch fluorescence ratio", "MEASURED NUMBER": 0.982}
{"SEQ": "TTTTGATGGC", "ENDPOINT": "switch fluorescence ratio", "MEASURED NUMBER": 1.01}
{"SEQ": "TTGGCATGTT", "ENDPOINT": "switch fluorescence ratio", "MEASURED NUMBER": 1.01}
{"SEQ": "TTAAAAGGG", "ENDPOINT": "switch fluorescence ratio", "MEASURED NUMBER": 0.998}
{"SEQ": "TTGGTTTGGG", "ENDPOINT": "switch fluorescence ratio", "MEASURED NUMBER": 0.98}

Lab book: switch fluorescence ratio of `GATTAGGCGG` noted as 0.982

Memo: `CAAGGTTGTT` , reported switch fluorescence ratio: 1

GET /value?item= `TTCTACGGTA` &field=switch fluorescence ratio returns 1.69

Input `GCCTAGGGTT` . Output switch fluorescence ratio: 1

# switch fluorescence ratio (sequence: `GGGACCGTGT` ) is 1.01

---

Test system: ATP;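 also: ATP exposure 15 min at 22 °C before imaging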
ASSAY: switch fluorescence ratio, 500 uM ATP over buffer (Cy3 cluster intensity, sum of 5 cycles each) (fold (ratio)); higher = stronger signal-on switching upon ATP binding; sequences stand for … in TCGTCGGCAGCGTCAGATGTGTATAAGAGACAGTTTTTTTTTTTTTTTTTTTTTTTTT…TC
TEST SETTINGS: aptamer strand: ATP DNA aptamer (quencher-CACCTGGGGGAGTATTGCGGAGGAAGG + anchor), 100 nM annealed; ATP concentration: 500 uM
Listing of entries alongside the reported switch fluorescence ratio.
In your answer, state the number alone without any accompanying words.

The examples below pair each entry with its known result.
{"SEQ": "AAGGTAGTCT", "ENDPOINT": "switch fluorescence ratio", "MEASURED NUMBER": 1}
{"SEQ": "TTATGTGATA", "ENDPOINT": "switch fluorescence ratio", "MEASURED NUMBER": 0.956}
{"SEQ": "TCGGATGGTT", "ENDPOINT": "switch fluorescence ratio", "MEASURED NUMBER": 0.978}
{"SEQ": "GGTGTGCATC", "ENDPOINT": "switch fluorescence ratio", "MEASURED NUMBER": 1}
{"SEQ": "GGAAGGGAAC", "ENDPOINT": "switch fluorescence ratio", "MEASURED NUMBER": 0.988}

Measured switch fluorescence ratio (ATP), entry `CATACCCTTG` : 1.01

The recorded switch fluorescence ratio with ATP for `AGGGATGAGA` was 0.996

The sequence `GGTCTTCTTT` on ATP: switch fluorescence ratio was 0.994

Here `GGTTTAATCG` was tested on ATP, and its switch fluorescence ratio came to 1.01

Result for `CCGTGGCGTG` , tested on ATP, switch fluorescence ratio: 1.01
